Reported Herbicide damage on transplanted paddy rice values are given for each entry in this list.
System: paddy rice seedlings (cultivar: Nihonbare)
Assay: Herbicide damage on transplanted paddy rice (Test Example 2, Table 9)
Type: in vivo
Conditions: 60 g ai/ha, applied to water surface 5 days after transplantation, rated after 3 weeks; 100% = complete withering, 0% = no damage
Method: The formulations of active compounds were obtained as emulsions by mixing 1 part by weight of the active compound with the carrier and emulsifier in the described amounts. The formulations were diluted with water so as to adjust a prescribed dosage. In a greenhouse each three paddy rice seedlings (cultivar: Nihonbare) were transplanted (transplantation depth 2 cm) in each pot filled with 500 cm^2 of paddy field soil and covered with water in about 2 to 3 cm depth. […]
Express the result in % but write the number alone.

> print(dat)
                                   compound  reported.result
1  COc1cc(OC)nc(C(O)c2c(F)cccc2NS(=O)(=O)C(F)F)n1 (stereo not shown)               10

What Herbicide damage on transplanted paddy rice value was documented for this compound, COc1cc(OC)nc(C(O)c2ccc(F)c(OC)c2NS(=O)(=O)C(F)F)n1 (stereo not shown) ?
0

What Herbicide damage on transplanted paddy rice value was documented for this compound, COc1cc(OC)nc(C(O)c2ccc(F)c(F)c2NS(=O)(=O)C(F)F)n1 (stereo not shown) ?
10

What Herbicide damage on transplanted paddy rice value was documented for this compound, COc1cc(OC)nc(C(O)c2ccc(Cl)c(OC)c2NS(=O)(=O)C(F)F)n1 (stereo not shown) ?
0

What Herbicide damage on transplanted paddy rice value was documented for this compound, COc1cc(OC)nc(C(O)c2ccc(F)c(C)c2NS(=O)(=O)C(F)F)n1 (stereo not shown) ?
10

What Herbicide damage on transplanted paddy rice value was documented for this compound, COc1cc(OC)nc(C(O)c2c(F)ccc(F)c2NS(=O)(=O)C(F)F)n1 (stereo not shown) ?
10

What Herbicide damage on transplanted paddy rice value was documented for this compound, COc1cc(OC)nc(C(O)c2ccc(Cl)c(F)c2NS(=O)(=O)C(F)F)n1 (stereo not shown) ?
10

What Herbicide damage on transplanted paddy rice value was documented for this compound, COc1cc(OC)nc(C(O)c2ccc(F)cc2NS(=O)(=O)C(F)F)n1 (stereo not shown) ?
0

What Herbicide damage on transplanted paddy rice value was documented for this compound, COCc1cccc(C(O)c2nc(OC)cc(OC)n2)c1NS(=O)(=O)C(F)F (stereo not shown) [C-2, reference compound] ?
30

What Herbicide damage on transplanted paddy rice value was documented for this compound, COc1nc(OC)nc(C(=O)c2cccc(OC)c2N(C)S(=O)(=O)C(F)F)n1 ?
0
